For each record, write down the corresponding n value, event 2, two-site model.
system_name: T1, BS69CC-MYND (BS69 amino acid 480–602, CC-MYND domain) (Homo sapiens, UniProt Q15326)
T1 construct: The BS69 CC-MYND domain (amino acids 480–602) was amplified from pCI-BS69; GST (N, cleaved yes); 6xHis (N, cleaved yes); made in house; host or cells: E. coli Rosetta 2 (DE3) pLysS
T1 sequence (Q15326 480-602): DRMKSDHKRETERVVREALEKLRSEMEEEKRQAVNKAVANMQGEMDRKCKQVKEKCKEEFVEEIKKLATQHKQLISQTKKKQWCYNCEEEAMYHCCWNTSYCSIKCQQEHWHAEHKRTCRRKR
test_description: Isothermal titration calorimetry (ITC) of EBNA2 peptides and polypeptides binding to BS69CC-MYND
measurement_context: 29 injections, mean ± SD of 3 independent experiments
One number for each entry.

Some solved entries appear below for comparison.
EBNA2_348-422 SD + m3 mt: type 2 EBNA2 polypeptide 348–422 containing both the SD and motif 3 (ATAEA) mutations (protein, left off: His6, N-terminal, cleaved, type 2 EBNA2 polypeptide 348–422 containing both the SD and motif 3 (ATAEA) mutations) SMPQLSPVVSLHQGQGPENSPTPGPSTAGPVCRVTPSATPDISPIHEPESSDSEEPPFLFPDDWYPATAEAAELD ... 0.19
T2 EBNA2_348-422 SD: type 2 EBNA2 polypeptide 348–422 with an S409D mutation (protein, left off: His6, N-terminal, cleaved, type 2 EBNA2 polypeptide 348–422 with an S409D mutation) SMPQLSPVVSLHQGQGPENSPTPGPSTAGPVCRVTPSATPDISPIHEPESSDSEEPPFLFPDDWYPPTLEPAELD ... 0.20
T2 EBNA2_348-422: type 2 EBNA2 polypeptide containing motif 1, 2 and 3, amino acids 348–422 (protein, left off: His6, N-terminal, cleaved) SMPQLSPVVSLHQGQGPENSPTPGPSTAGPVCRVTPSATPDISPIHEPESSDSEEPPFLFPSDWYPPTLEPAELD ... 0.21

Now consider a different molecule.
Problem: # return recorded n value, event 2, two-site model for entry EBNA2_348-422 SD + m3 T1: type 2 EBNA2 polypeptide 348–422 containing both the SD and motif 3 (PSIDP) mutations (protein, left off: His6, N-terminal, cleaved, type 2 EBNA2 polypeptide 348–422 containing both the SD and motif 3 (PSIDP) mutations) SMPQLSPVVSLHQGQGPENSPTPGPSTAGPVCRVTPSATPDISPIHEPESSDSEEPPFLFPDDWYPPSIDPAELD
Result: 0.20

Every entry's value here was drawn from paper PMC6638984.
